normalized growth values, listed per item
# experiment.description: chemical genetic growth profiling, strain panel (AID 1159580);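 further: tested at 20 µM; growth read once vehicle control cultures reached saturation at 30 °C; 1 = growth at the plate median or of vehicle wells; lower values mean less growth of the strain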
# assay.conditions: S. cerevisiae deletion strains, growth OD, locus YFR010W, strain ubp6, active compounds read low
Among all 5,500 compounds or so, about 2,000 (36%) were called active. Not shown: some 18% with an inconclusive outcome. The list shows a part of the results.
Form field (numeric): enter value without unit.

# compound, normalized growth
data = [
    ("CCC(c1ccc(O)cc1)C(CC)c1ccc(O)cc1 (stereo unspecified)", 0.957),
    ("O=C(O[C@@H]1Cc2c(O)cc(O)cc2O[C@@H]1c1cc(O)c(=O)c2c(O)c(O)cc([C@H]3Oc4cc(O)cc(O)c4C[C@H]3OC(=O)c3cc(O)c(O)c(O)c3)c2c1)c1cc(O)c(O)c(O)c1", 0.571),
    ("NC(=O)CN1CCCC1=O", 0.972),
]

// COC(=O)[C@@]1(C)CCC[C@]2(C)c3ccc(O)c(C(C)C)c3CCC12 (stereo partly specified) : normalized growth value = 0.952

For this compound ( COc1ccc2c(c1)CCC1C2CC[C@@]2(C)C1CC[C@@H]2O (stereo partly specified) ), measured normalized growth is 0.974

// `Cc1[nH]ccc2c1[nH]c1cc(=O)ccc12` : normalized growth value = 0.995

The compound `CCC(=O)c1c(O)cc(O)cc1O` showed normalized growth equal to 0.998

So, `COc1ccc(-c2oc3c(CC=C(C)C)c(O[C@@H]4O[C@H](CO)[C@@H](O)[C@H](O)[C@H]4O)cc(O)c3c(=O)c2O[C@@H]2O[C@@H](C)[C@H](O)[C@@H](O)[C@H]2O)cc1` ? Its normalized growth was 1.05

// C=CC1C2=CCOC(=O)C2=COC1OC1OC(CO)C(O)C(O)C1O (stereo unspecified) : normalized growth value = 1.03

// normalized growth value for `CC(C)[N+](C)(CCC(C(N)=O)(c1ccccc1)c1ccccc1)C(C)C` : 0.986

Record C[C@H]1O[C@H](OC2[C@@H](O)[C@@H](O)C(O)[C@H](O)[C@H]2O)[C@@H](N)C[C@@H]1N=C(N)C(=O)O (stereo partly specified) , field normalized growth: 0.979

Value of measured normalized growth for the entry `COc1cc(O)c2c(=O)c(O)c(-c3ccc(O)c(O)c3)oc2c1` : 0.736

Value of measured normalized growth for the entry CC(=O)Oc1ccc2c(c1C(C)C)CCC1C(C)(C)CCC[C@]21C (stereo partly specified) : 1.04

Sure, the documented normalized growth for CC(CC(O)C1OC1(C)C)[C@@H]1CCC2(C)C3=CCC4C(C)(C)C(=O)CCC4(C)C3CC[C@@]12C (stereo partly specified) is 0.997

// normalized growth value for `COC(=O)c1c(C)cc(O)cc1O` : 1.02

Reported normalized growth of COC(=O)[C@]1(C)CCC[C@]2(C)c3ccc(C(C)C)cc3C(=O)CC12 (stereo partly specified) : 0.977

The compound listed as CN[C@@H]1[C@@H](O)C(OC2[C@@H](N)C[C@@H](N)[C@H](O[C@H]3O[C@H](C(C)O)[C@@H](O)[C@H](O)[C@H]3N)[C@H]2O)OC[C@]1(C)O (stereo partly specified) shows normalized growth equal to 0.971

* * *

Overview of reported normalized growth across a group of molecules:
# experiment.description: chemical genetic growth profiling, strain panel (AID 1159580)
# assay.conditions: S. cerevisiae deletion strains, growth OD, locus YGL248W, strain PDE1, active compounds read low
Hit rate of the full screen: of about 5,500 compounds, about 2,000 (36%) were called active. Roughly 18% stayed inconclusive and do not appear here. Some of the results follow.
Kindly provide the number alone.

Lookup result for `COc1c2ccoc2cc2oc(=O)ccc12` ; measured normalized growth: 0.718

normalized growth in this record for COc1ccc2c(c1)CCC1C2CCC2(C)C1C[C@@H](O)C2O (some centres not stated) : 1

In plain terms, C[C@]12CCC3c4ccc(O)cc4CCC3C1C[C@@H](O)[C@@H]2O (some centres not stated) has a documented normalized growth of 0.988

normalized growth measured on CCN(Cc1ccncc1)C(=O)C(CO)c1ccccc1 (configuration not stated) = 1

Consider `NC(N)=NC(=O)c1nc(Cl)c(N)nc1N` . Its measured normalized growth is 1.01

// normalized growth value for `NC(=O)c1ncn([C@@H]2O[C@H](CO)[C@@H](O)[C@H]2O)n1` : 0.996

Form: molecule = NC(=O)NCCCC(N)C(=O)O (configuration not stated) ; normalized growth = 1.01

GET /value?item= COc1ccc2c(c1)CCC1C2CC[C@@]2(C)C1CC[C@@H]2O (some centres not stated) &field=normalized growth returns 0.844

According to the records, this molecule `CN(C)c1nc(N)c(C(=O)N=C(N)N)nc1Cl` displays normalized growth of 1

Item: `COc1cc(OC)c2ccc(=O)oc2c1` | normalized growth: 1.01

# normalized growth (molecule: CC12CCC3c4ccc(OCc5ccccc5)cc4CCC3C1C[C@@H](O)[C@@H]2O (some centres not stated) ) is 0.0599

For record `COc1cc2occc2c2oc(=O)ccc12` the listed normalized growth is 0.964

* * *

# experiment.description: chemical genetic growth profiling, strain panel (AID 1159580);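 further: tested at 20 µM; growth read once vehicle control cultures reached saturation at 30 °C; 1 = growth at the plate median or of vehicle wells; lower values mean less growth of the strain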
# assay.conditions: S. cerevisiae deletion strains, growth OD, locus YHR079C, strain IRE1 (second series)
Screen size: about 5,500 compounds; about 2,000 (36%) were called active. Not shown: some 18% with an inconclusive outcome. Cut-off read from the data, not from the text of the source: active = normalized growth mostly below about 0.91 (no sharp cut-off); inconclusive = no clear call, values can overlap the other calls; inactive = mostly above about 0.92. This is one part of the list.
Return exactly one item of active, inactive

As a guide, the following entries are already answered.
# molecule, cat
measured = [
    ("Oc1ccc2c(c1)OCC1(O)Cc3cc(O)c(O)cc3C21 (stereo not given)", "inactive"),
    ("CC(C)c1c(O)ccc2c1CCC1C(C)(C)CCC[C@]21C (stereo not given in full)", "active"),
    ("CC(C)c1c(O)c(-c2cc3c(c(C(C)C)c2O)CCC2C(C)(C)CCC[C@]32C)cc2c1CCC1C(C)(C)CCC[C@]21C (stereo not given in full)", "inactive"),
    ("CC(=O)Oc1ccc2c(c1OC(C)=O)OCC1(O)Cc3c(cc(OC(C)=O)c(OC(C)=O)c3OC(C)=O)C21 (stereo not given)", "inactive"),
]

Query: Which result was noted for this molecule in the test: COc1ccc2c(c1C(C)C)CCC1C(C)(C)C(=O)CCC21C (stereo not given)
Result: inactive

* * *

# experiment.description: chemical genetic growth profiling, strain panel (AID 1159580);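 further: tested at 20 µM; growth read once vehicle control cultures reached saturation at 30 °C; 1 = growth at the plate median or of vehicle wells; lower values mean less growth of the strain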
# assay.conditions: S. cerevisiae deletion strains, growth OD, locus YNL006W, strain LST8, active compounds read low
About 2,000 (36%) of roughly 5,500 compounds were called active. Another 18% or so got no clear call; they are omitted. This is one part of the list.
Property: normalized growth; scope: individual molecules
Output: the number by itself.

Some entries whose results are on file:
# molecule, val
records = [
    ("CN(C)C=Nc1nnc(Sc2nc3c(Cl)cc(Cl)cc3s2)s1", 0.969),
    ("COCCCNC(=S)N/N=C\\c1cc(Cl)cc(Cl)c1O", 0.963),
    ("Cc1cc(Cl)ccc1NNC(=O)c1sccc1Br", 0.925),
    ("OC1(C(F)(F)F)CC(c2ccc3ccccc3c2)=NN1 (stereo not drawn)", 0.2),
]

Noted for `O=C(NNc1ccc(F)cc1F)c1sccc1Cl` : its normalized growth reads 0.989

Given item `O=C1Nc2ccccc2/C1=C/c1ccc(Oc2ccccc2)nc1` , the value recorded as its normalized growth is 0.975

Query `CC(C)(C)C(=O)NC(=S)N/N=C\c1cc(Cl)cc(Cl)c1O` yields normalized growth of 0.924

The molecule listed as `CCNC(=S)N/N=C\c1cc(Cl)cc(Cl)c1O` has a reported normalized growth of 0.919

Lab note: measured normalized growth of `O=C1Nc2ccccc2/C1=C/c1ccc(C(F)(F)F)cc1Cl` was 0.979

* * *

# experiment.description: chemical genetic growth profiling, strain panel (AID 1159580);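 further: tested at 20 µM; growth read once vehicle control cultures reached saturation at 30 °C; 1 = growth at the plate median or of vehicle wells; lower values mean less growth of the strain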
# assay.conditions: S. cerevisiae deletion strains, growth OD, locus YPL106C, strain sse1
Hit rate of the full screen: of about 5,500 compounds, about 2,000 (36%) were called active. Another 18% or so got no clear call; they are omitted. Rule as the data show it: active = normalized growth mostly below about 0.91 (no sharp cut-off); inconclusive = no clear call, values can overlap the other calls; inactive = mostly above about 0.92. The list shows a part of the results.
Allowed answers: active, inactive

Answered examples (6):
# compound, cat
measured = [
    ("NC(=NCCC[C@H](N)C(=O)O)N[N+](=O)[O-]", "inactive"),
    ("C[C@]12C=CC(=O)C=C1CCC1C2[C@@H](O)C[C@@]2(C)C1CC[C@]2(O)C(=O)COP(=O)(O)O (some centres not stated)", "inactive"),
    ("CCCCCCC(C)OC(=O)COc1ccc(Cl)cc1Cl (configuration not stated)", "inactive"),
    ("O=c1ccc2c(O)c3ccoc3cc2o1", "inactive"),
    ("COc1ccc2c(c1)CCC1C2CC[C@@]2(C)C1CC[C@@H]2O (some centres not stated)", "active"),
    ("COC1=CC(=O)C(C(=O)c2ccccc2)=CC1=O", "inactive"),
]

Query: For this compound, state the assay outcome: `COc1cc(OC)c2ccc(=O)oc2c1`
Result: inactive

Query: For CCCCC1C(=O)N(c2ccccc2)N(c2ccc(O)cc2)C1=O (configuration not stated) , what call appears in the results of this test?
Result: inactive

Query: I'd appreciate the recorded outcome for `O=c1c(O)c(-c2ccc(O)c(O)c2)oc2c(O)c(O)cc(O)c12` from this test.
Result: inactive

Query: Recorded call for `COc1cccc2c(C)cc(=O)[nH]c12` ?
Result: inactive

Query: Record lookup: outcome of this test for C[C@]12CCC3c4ccc(OS(=O)(=O)O)cc4CCC3C1CC[C@H]2O (some centres not stated) ?
Result: inactive

Query: What classification did `COc1ccc2ccc(=O)oc2c1` end up with in this test?
Result: inactive

Where do these numbers come from? They come from PubChem BioAssay AID1159580.
